Tested on: PfAP2-EXP AP2 domain (GST-tagged)
Test: gcPBM binding intensity (ln(normalized median fluorescence intensity)); higher = stronger DNA binding
The full ranking holds about 25,000 sequences; the median of “ln(normalized median fluorescence intensity)” is about 8.6, and the highest 2% start at about 10. Only a selection was taken, and the highest values are over-represented in it overall.
Reported gcPBM binding intensity (ln) values are given for each entry in this list.
parameter: gcPBM binding intensity (ln)

| sequenceData | number |
| --- | --- |
| TATATATATTATATATGTACATATTATATATATATA [XGTACX_site7300] | 9.46 |
| TAAAATATTGTTATTACATGCAACCTTATGAAAAAT [TGCATGCA_site706] | 8.94 |
| AAAAAATATATATGCACACACAAAAAAACAAATTAA [CACACA_site1278] | 8.78 |
| CTCATCCTTACATACACACACATATATTTATTTATA [CACACA_site6202] | 8.99 |
| AATCATTAAAGCATAATGTTTATGATCAATATGAAA [CACACA_negctrl_site887] | 8.27 |
| AAAAATTTTAATTAGGAACACACATATATATATATA [CACACA_site9016] | 10.1 |
| GGTATACGCAAGTATACACACATATATATATATATA [CACACA_site3240] | 10.1 |
| TAATATTGACTATATACACACATATATATATATATA [CACACA_site575] | 10.2 |
| AAATTTTAATTAGGAACACACATATATATATATATA [CACACA_site5673] | 10.2 |
| AACGAAATCATCAAGTGTACTAGTTTATTATTAATA [XGTACX_site6161] | 8.38 |
| AACTTCTTTTTTATAACACACAAAATATATATACAA [CACACA_site282] | 8.69 |
| AAAAATATAACCGTTACACACAAAATAATATGAGAA [CACACA_site3773] | 8.72 |
| CAAACAATTAAACAAACACACATATACAAGTATATA [CACACA_site8639] | 8.38 |
| TATATATATATATATACACACATATATATATTTATA [CACACA_site627] | 10.3 |
| AAATTATAATTAGGAACACACATATATATATATATA [CACACA_site3098] | 10.1 |
| TATTTATATTTATATACACACATACATATTTATATT [CACACA_site6535] | 8.41 |
| AGGATATGCAGACACACACACATATATATATATATA [CACACA_site2201] | 10.3 |
| AAAAAAAACAGACACACACACACATATACATACATA [CACACA_site2665] | 8.41 |
| TATAATGAGGATAATAGTACATATGAATACAAAAAA [XGTACX_site3665] | 8.86 |
| AGACGAAAATAATAAAGTACTAAAAAAAAAAAAAAA [XGTACX_site927] | 8.14 |
| GGTATATATTTATAATGTACATATTCATATATATAA [XGTACX_site3291] | 8.45 |
| GAAGACAATTATATGTGTACATATATATACATATAT [XGTACX_site4630] | 8.44 |
| CAATATAAAATAAAATGTACTTGTAGTAAAGGGATA [XGTACX_site1452] | 8.79 |
| AGGATATGCAGACACACACACATATAGATTTATATA [CACACA_site7100] | 8.41 |
| GTTACATACATATACACACACATATATATATATATA [CACACA_site901] | 9.99 |
| GGTATACACAAGTATACACACATATAAATATAAATA [CACACA_site7511] | 8.5 |
| GAGAAATGGGGACACACACACATATTATATATATAT [CACACA_site4943] | 9.71 |
| AGGATACACAGACACACACACATATATATATATATA [CACACA_site907] | 10 |
| CTCATCCTTACATACACACACATATATATATATATA [CACACA_site103] | 10.2 |

----------
Test system: PfAP2-EXP AP2 domain (GST-tagged)
Test: gcPBM binding intensity (ln(normalized median fluorescence intensity)); higher = stronger DNA binding
Over roughly 25,000 sequences, “ln(normalized median fluorescence intensity)” has its median near 8.6; the highest 2% begin near 10. What follows is part of a selection rich in the highest values, with near analogues and random picks from the rest.
parameter: gcPBM binding intensity (ln)

| sequenceData | number |
| --- | --- |
| TAATAAATAGGACACACACACATATATATATATTAT [CACACA_site4891] | 8.87 |
| TTTTTTTTTTGATGCACACACCTGAACGAGTTAATA [CACACA_site4329] | 8.83 |
| TACTTACACTGTTTTTGTACTTATTTCCCTTTTATT [XGTACX_site2158] | 9.12 |
| ATCCATCTTTTAATTTGTACTTATTCTTTTTTCTTT [XGTACX_site5299] | 9 |
| ATATATGATGTATTTGTGCACATATATATATTATTA [GTGCAC_site9471] | 8.75 |
| ATATATATTATGTGTGTGCACTTTTGTTATTATTAT | 9 |
| GTCCAATAAGGAAGAGTGCAAAAATTAAATAATATA [GTGCAC_site9751] | 8.76 |
| CTGTATTCATAATTCACACAAATGGTTTATATGAAT [CACACA_site4315] | 8.5 |
| TCCACACAATTTATAACATGCAAAAAGGCAATAATA [TGCATGCA_site773] | 8.69 |
| ATAAATATACATTATACCGACCATGTGGATATTATA [XGTACX_negctrl_site241] | 8.43 |
| TACATATTTATATACACACACACACGGATATTTATA [CACACA_site7239] | 8.94 |
| TTTTAAAACAATGAGATTCCTTTCTTTTTTTCTTTT [CACACA_negctrl_site1320] | 7.96 |
| TTATTTTCCCTTTGTGCATGCAGTTTACTTTTTGTG [TGCATGCA_site993] | 10.4 |
| TATAAACCGACGAAAACACACATATGTAAATATATA [CACACA_site491] | 8.94 |
| AATAAATACACATACACACACGACGCTAGTATATGT [CACACA_site6627] | 8.29 |
| GATGTGATGTATTTGGTATTTTTCGATGTTGGTAGG [CACACA_negctrl_site355] | 8.79 |
| ATTTCCCCTTTTTATTGTACATTTTTATTTGTTACT [XGTACX_site4845] | 9.14 |
| TCACATACATTACTTACACACCATATTAAGATATAC [CACACA_site4415] | 8.68 |
| AAGAATATTATAAACACACACTTTATAAAGAATTAT [CACACA_site4241] | 8.51 |
| TATTCCTAATTTAAAAGTACATATATATATATATAT [XGTACX_site3008] | 10.2 |

----------
Tested on: PfAP2-EXP AP2 domain (GST-tagged)
Assay: gcPBM binding intensity (ln(normalized median fluorescence intensity)); higher = stronger DNA binding
Whole data set: some 25,000 sequences, median “ln(normalized median fluorescence intensity)” near 8.6, cut for the highest 2% near 10. The list comes from a sample in which the highest values are over-represented; it also holds close analogues and randomly drawn sequences.
Reported gcPBM binding intensity (ln) values are given for each entry in this list.

| sequenceData | gcPBM binding intensity (ln) |
| --- | --- |
| AGAATAAAAAGGAACACACACACACGCATATAAATA [CACACA_site7659] | 9.01 |
| TAAGTTCCCTTTGAATGTACATATAATGAAAAGAAA [XGTACX_site826] | 8.76 |
| ATACATACATACATACGTACATATGTATATATATAT [XGTACX_site8498] | 9.7 |
| ATTACAAATATAATATGTACTTAAATATAATTAAAA [XGTACX_site7038] | 8.17 |
| CATCCAAAAATATTATGTACTAAATTTGGATGTATT [XGTACX_site3954] | 8.48 |
| TAAAAAATTATATTCACACACATACACATATATATA [CACACA_site545] | 8.54 |
| TTTAATAATATAATGTGTACTTAAAAATTTATATAT [XGTACX_site5821] | 8.29 |
| ATTCTACACAGACATACACACATATATATATATATA [CACACA_site5826] | 10.2 |
| AAAAATTTTATATTCACACACATATTTATATTTATA [CACACA_site6439] | 8.25 |
| CCATATACAACCATACGTACATATATATATATATAT [XGTACX_site8193] | 10.2 |
| TTATGGTTATACATATGTACATATATATATATATAT [XGTACX_site1494] | 10.3 |
| AAAAAAATATAAATACGTACATATATATATATATAT [XGTACX_site432] | 10.2 |
| TAAAAAATTTTATATTCACACACATATATATATATA [CACACA_site8109] | 10.1 |
| AACTTATTTAAATTCACACATATATAAAATACTTAT [CACACA_site4394] | 8.38 |
| ATCATGTTATATACATGTACATATATATATATATAA [XGTACX_site609] | 8.51 |
| ATATATATATATATATGTACATATATACATATACAT [XGTACX_site2350] | 9.99 |
| ATAAATAAATAAATACGTACATATATATATATATAT [XGTACX_site8838] | 9.98 |
| ATATTCATATATACTTCACACACATTTTATCATTCA [CACACA_site8784] | 8.71 |
| TATACATTATTATTATGTACTTAAATATATATTATA [XGTACX_site5173] | 8.35 |
| AAAAACTTAATATTCACACATATATATATATATATA [CACACA_site5240] | 10.2 |
